These entries and their values trace back to ChEMBL document CHEMBL3352541.

test: Terminal half life in Wistar rat at 1 mg/kg, po by HPLC-MS/MS analysis; format: ADME, organism-based; set-up: dose 1 mg/kg, route oral; conditions: in vivo, read-out: beta t1/2 (converted)
QUANTITY: half-life (h)

[O-][S+](c1cccc(OC(F)(F)F)c1)c1c(O)c(-c2cccnc2)cc2ccccc12 (stereo unspecified)    7

----------
Target: UniProt:P15538
Sequence (P15538 whole entry): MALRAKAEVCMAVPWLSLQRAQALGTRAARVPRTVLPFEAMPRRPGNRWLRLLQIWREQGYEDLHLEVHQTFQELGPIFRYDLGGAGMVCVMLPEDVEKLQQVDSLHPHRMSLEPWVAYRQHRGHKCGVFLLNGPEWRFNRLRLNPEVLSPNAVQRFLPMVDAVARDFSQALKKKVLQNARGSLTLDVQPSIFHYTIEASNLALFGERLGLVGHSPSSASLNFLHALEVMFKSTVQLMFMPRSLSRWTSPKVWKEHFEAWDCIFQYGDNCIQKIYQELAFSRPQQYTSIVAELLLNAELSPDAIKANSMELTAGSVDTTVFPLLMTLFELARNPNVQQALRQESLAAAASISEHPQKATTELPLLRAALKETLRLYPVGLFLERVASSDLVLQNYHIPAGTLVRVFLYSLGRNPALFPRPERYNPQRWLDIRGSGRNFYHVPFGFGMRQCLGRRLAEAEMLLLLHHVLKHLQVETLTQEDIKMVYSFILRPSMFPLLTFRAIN
Hi! Could you tag entries with IC50 below 5 µM as 1, and those at or above as -1? Much appreciated.

[O-][S+](c1ccc(C(F)(F)F)cc1)c1c(O)c(-c2cccnc2)cc2ccccc12 (stereo not given)    -1
[O-][S+](c1ccc(F)cc1)c1c(O)c(-c2cccnc2)cc2ccccc12 (stereo not given)    -1
[O-][S+](c1ccc(OC(F)(F)F)cc1)c1c(O)c(-c2cccnc2)cc2ccccc12 (stereo not given)    -1
[O-][S+](c1cc(C(F)(F)F)cc(C(F)(F)F)c1)c1c(O)c(-c2cccnc2)cc2ccccc12 (stereo not given)    -1
[O-][S+](c1ccccc1Cl)c1c(O)c(-c2cccnc2)cc2ccccc12 (stereo not given)    1
COc1ccc([S+]([O-])c2c(O)c(-c3cccnc3)cc3ccccc23)cc1 (stereo not given)    1
[O-][S+](c1cccs1)c1c(O)c(-c2cccnc2)cc2ccccc12 (stereo not given)    -1
COc1ccccc1[S+]([O-])c1c(O)c(-c2cccnc2)cc2ccccc12 (stereo not given)    1
[O-][S+](c1cccc(Cl)c1)c1c(O)c(-c2cccnc2)cc2ccccc12 (stereo not given)    1
